Cited source for all entries: patent US20230158179A1

Reported Kd is given for each of the following binders.
tgt: T1, FOLR1-Fc-Avi (AcroBiosystems, F01-H82F9) (UniProt P15328 25-234, biotinylated (immobilised by streptavidin-biotin chemistry))
T1 construct: Bought reagent; also called folate receptor 1
protocol summary: SPR, Biacore 8K, FOLR1-Fc-Avi immobilised, single cycle kinetics, 1:1 model; grade legend paragraph 444: 0 nM < A <= 10 nM
Bridge positions count the residues as written; N and C are the ends. Square brackets hold non-standard residues; d marks the D form. Phe(3-Cl) = N[C@@H](Cc1cccc(Cl)c1)C(=O)O; NMeY = CN[C@@H](Cc1ccc(O)cc1)C(=O)O; NMeF = CN[C@@H](Cc1ccccc1)C(=O)O; Chg = N[C@H](C(=O)O)C1CCCCC1

{"columns": ["binder", "Kd"],
 "data": [
  ["DR[Chg][NMeF]D[Phe(3-Cl)]DT[NMeY][NMeY]WYC-NH2 (bridge N-13; not fully specified (N-terminus, bridges), The cell assay detects with SA-647, so a biotinylated form was used) [P-11]", "≤ 10 nM"],
  ["ARL[NMeF]DYDT[NMeY][NMeY]WYC-NH2 (bridge N-13; not fully specified (N-terminus, bridges), The cell assay detects with SA-647, so a biotinylated form was used) [P-10]", "≤ 10 nM"],
  ["DR[Chg][NMeF]DYDT[NMeY][NMeY]WYC-NH2 (bridge N-13; not fully specified (N-terminus, bridges)) [P-12]", "≤ 10 nM"]
]}
